- tgt: HPK1 (Homo sapiens (Human))
pKi: −log10 of the molar value.
Give Criterion met when the value for pKi is at least 7. Give Criterion not met when it is less.

Q: Is reported pKi greater than or equal to 7 here: C[C@@H]1CNC(=O)N1c1cccc(-c2cnc3c(c2Cl)C2(CC2)CN3)c1 [Compound 69a]
Ans: Criterion met

Q: Is reported pKi greater than or equal to 7 here: CN(C)C(=O)c1c(N)ccc(-c2cnc3c(c2Cl)[C@]2(CC[C@H](CO)CC2)CN3)c1F [Compound 248a]
Ans: Criterion met

Q: Is reported pKi greater than or equal to 7 here: CC(C)(C)c1nnc(-c2cccc(-c3cnc4c(c3Cl)C3(CC=CC3)CN4)c2)o1
Ans: Criterion not met

Q: Is reported pKi greater than or equal to 7 here: Cc1cnn([C@H]2CC[C@@]3(CNc4ncc(-c5ccc(N)c(C(=O)N(C)C)c5F)c(Cl)c43)C2)c1N (relative stereo) [Compound 178a]
Ans: Criterion met

Q: Is reported pKi greater than or equal to 7 here: Cn1cccc(-c2cccc(-c3cnc4c(c3Cl)[C@]3(CC[C@H](O)C3)CN4)c2)c1=O [Compound 68c]
Ans: Criterion met

---
Q: Is reported pKi greater than or equal to 7 here: CN(C)C(=O)c1c(N)ccc(-c2cnc3c(c2Cl)[C@]2(CC[C@H](N4CCOC4=O)C2)CN3)c1F (relative stereo) [Compound 124a]
Ans: Criterion met

Q: Is reported pKi greater than or equal to 7 here: CN(C)C(=O)c1c(N)ccc(-c2cnc3c(c2Cl)[C@]2(CN3)C[C@@H]2CO)c1F [Compound 39b]
Ans: Criterion met

---

Let's go through some Ki measurements on UniProtKB Q92918 together.
Numeric answer only, unit nM assumed.

// below: answered compounds
Q: What Ki value was documented for this compound, CN(C)C(=O)c1c(N)ccc(-c2cnc3c(c2Cl)[C@]2(CC[C@H](n4nccc4C(F)(F)F)C2)CN3)c1F [Compound 169a] ?
Ans: 54

Q: What Ki value was documented for this compound, CN(C)C(=O)c1c(N)ccc(-c2cnc3c(c2Cl)[C@]2(CC[C@](C)(O)CC2)CN3)c1F [Compound 194b] ?
Ans: 8.36

Q: What Ki value was documented for this compound, CC1(C#N)CCCN1C(=O)c1cccc(-c2cnc3c(c2)C2(CC2)CN3)c1F (single isomer, unassigned) [Compound 191a] ?
Ans: 34.7

Q: What Ki value was documented for this compound, CN(C)C(=O)c1c(N)ccc(-c2cnc3c(c2Cl)[C@]2(CC[C@@H](C#N)CC2)CN3)c1F [Compound 241a] ?
Ans: 44.8

Q: What Ki value was documented for this compound, CN(Cc1cnn(C2CCNC2)c1)C(=O)c1cccc(-c2cnc3c(c2Cl)C2(CC=CC2)CN3)c1F (centres unmarked) ?
Ans: 38

---
Q: What Ki value was documented for this compound, CN(C)C(=O)c1c(N)ccc(-c2cnc3c(c2Cl)[C@@]2(CC[C@@](C)(C#N)C2)CN3)c1F (single isomer, unassigned) [Compound 261b] ?
Ans: 37.1

Q: What Ki value was documented for this compound, CN(C)C(=O)CNc1ccc(-c2cnc3c(c2)C2(CC2)CN3)cn1 ?
Ans: 236

Q: What Ki value was documented for this compound, CC(C)C1C[C@]12CNc1ncc(-c3ccc(N)c(C(=O)N(C)C)c3F)cc12 (single isomer, unassigned) [Compound 234d] ?
Ans: 51.9

---

Let's go through some pKi measurements on HPK1 (Homo sapiens (Human), UniProt Q92918) together.
Sequence (Q92918 1-346 limits assumed): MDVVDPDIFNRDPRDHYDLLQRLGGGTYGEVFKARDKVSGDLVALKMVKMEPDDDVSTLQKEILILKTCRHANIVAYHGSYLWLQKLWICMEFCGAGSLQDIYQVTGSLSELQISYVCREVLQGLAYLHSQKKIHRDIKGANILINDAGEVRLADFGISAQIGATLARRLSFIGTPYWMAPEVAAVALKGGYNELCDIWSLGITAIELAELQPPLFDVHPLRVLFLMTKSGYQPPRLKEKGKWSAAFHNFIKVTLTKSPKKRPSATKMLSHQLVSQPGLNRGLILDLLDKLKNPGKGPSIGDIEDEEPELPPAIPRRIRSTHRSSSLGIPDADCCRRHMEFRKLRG
Bear in mind: pKi is minus log10 of a mol/L concentration; give just that figure.

// below: answered molecules
Q: Form entry - test system: HPK1 (Homo sapiens (Human), UniProt Q92918); read-out: pKi; molecule: C[C@@H](c1cnn(C)c1)N(C)C(=O)c1cccc(-c2cnc3c(c2)C2(CC2)CN3)c1F (single isomer, unassigned) [Compound 229b]
Ans: 7.89

Q: Form entry - test system: HPK1 (Homo sapiens (Human), UniProt Q92918); read-out: pKi; molecule: CN(C)C(=O)c1c(N)ccc(-c2cnc3c(c2Cl)[C@]2(CC[C@](C)(O)C2)CN3)c1F (relative stereo) [Compound 82a]
Ans: 8.09

---
Q: Form entry - test system: HPK1 (Homo sapiens (Human), UniProt Q92918); read-out: pKi; molecule: Cc1cc(C#N)n([C@H]2CC[C@@]3(CNc4ncc(-c5ccc(N)c(C(=O)N(C)C)c5F)c(Cl)c43)C2)n1 (relative stereo) [Compound 161a]
Ans: 7.29

Q: Form entry - test system: HPK1 (Homo sapiens (Human), UniProt Q92918); read-out: pKi; molecule: Cn1cccc(-c2cccc(-c3cnc4c(c3Cl)C3(CC[C@@H](O)C3)CN4)c2)c1=O (single isomer, unassigned) [Compound 68a]
Ans: 7.75

Q: Form entry - test system: HPK1 (Homo sapiens (Human), UniProt Q92918); read-out: pKi; molecule: CC(=O)NCc1cccc(-c2cnc3c(c2Cl)C2(CC=CC2)CN3)c1 [Compound 211]
Ans: 6.84

---

Let's go through some Ki measurements on HPK1 (Homo sapiens (Human)) together.
Numeric answer only, unit nM assumed.

Q: Form entry - test system: HPK1 (Homo sapiens (Human)); read-out: Ki; compound: C[C@H](c1cnn(C)c1)N(C)C(=O)c1cccc(-c2cnc3c(c2)C2(CC2)CN3)c1F (single isomer, unassigned) [Compound 229a]
Ans: 11

---
Q: Form entry - test system: HPK1 (Homo sapiens (Human)); read-out: Ki; compound: O=C(c1cccc(-c2cnc3c(c2)C2(CC2)CN3)c1F)N1CCc2ccccc21 [Compound 172]
Ans: 319

Q: Form entry - test system: HPK1 (Homo sapiens (Human)); read-out: Ki; compound: CN(C)C(=O)c1c(N)ccc(-c2cnc3c(c2Cl)[C@@]2(CN3)C[C@@H]2CO)c1F (single isomer, unassigned) [Compound 39c]
Ans: 11.6

Q: Form entry - test system: HPK1 (Homo sapiens (Human)); read-out: Ki; compound: O=C1CCCCN1c1cccc2c(-c3cnc4c(c3Cl)[C@]3(CC[C@H](O)C3)CN4)c[nH]c12 (single isomer, unassigned) [Compound 300a]
Ans: 27

Q: Form entry - test system: HPK1 (Homo sapiens (Human)); read-out: Ki; compound: CN(CCO)C(=O)c1c(N)ccc(-c2cnc3c(c2Cl)C2(CC2)CN3)c1F [Compound 36]
Ans: 4.7

Q: Form entry - test system: HPK1 (Homo sapiens (Human)); read-out: Ki; compound: CCC1(O)C(=O)Nc2ccc(-c3cnc4c(c3)C3(CC3)CN4)cc21 (centres unmarked) [Compound 278]
Ans: 281

Q: Form entry - test system: HPK1 (Homo sapiens (Human)); read-out: Ki; compound: Cn1cc([C@H]2CCCN2C(=O)c2cccc(-c3cnc4c(c3)C3(CC3)CN4)c2F)cn1 (single isomer, unassigned) [Compound 174a]
Ans: 74.2

---

Let's go through some log10(Ki) measurements on HPK1 (Homo sapiens (Human), UniProt Q92918) together.
Recall that a logarithmic scale is used here: each number is log10 of Ki in nM.

Q: Form entry - test system: HPK1 (Homo sapiens (Human), UniProt Q92918); read-out: log10(Ki); compound: Cn1cc([C@@H]2CCCCN2C(=O)c2cccc(-c3cnc4c(c3Cl)C3(CC=CC3)CN4)c2F)cn1 (single isomer, unassigned) [Compound 240b]
Ans: 2.05

---
Q: Form entry - test system: HPK1 (Homo sapiens (Human), UniProt Q92918); read-out: log10(Ki); compound: O=C1CNCCN1c1cccc2c(-c3cnc4c(c3)C3(CC3)CN4)c[nH]c12
Ans: 1.51

Q: Form entry - test system: HPK1 (Homo sapiens (Human), UniProt Q92918); read-out: log10(Ki); compound: CN(C)C(=O)c1cccc2c(-c3cnc4c(c3)C3(CC3)CN4)c[nH]c12
Ans: 1.76

Q: Form entry - test system: HPK1 (Homo sapiens (Human), UniProt Q92918); read-out: log10(Ki); compound: CN(C)C(=O)c1cccc(-c2cnc3c(c2)[C@@]2(CC[C@@](C)(C(N)=O)C2)CN3)c1F (single isomer, unassigned) [Compound 199b]
Ans: 2.02

Q: Form entry - test system: HPK1 (Homo sapiens (Human), UniProt Q92918); read-out: log10(Ki); compound: CN(C)C(=O)c1c(N)ccc(-c2cnc3c(c2Cl)[C@]2(CC[C@@H](n4nccn4)C2)CN3)c1F [Compound 89c]
Ans: 1.36

Q: Form entry - test system: HPK1 (Homo sapiens (Human), UniProt Q92918); read-out: log10(Ki); compound: C[C@@H]1C[C@]12CNc1ncc(-c3ccc(N)c(C(=O)N(C)C)c3F)c(Cl)c12 (single isomer, unassigned) [Compound 228b]
Ans: 0.24

Q: Form entry - test system: HPK1 (Homo sapiens (Human), UniProt Q92918); read-out: log10(Ki); compound: C[C@H]1C[C@@]12CNc1ncc(-c3ccc(N)c(C(=O)N(C)C)c3F)c(Cl)c12 (single isomer, unassigned) [Compound 228a]
Ans: 0.68
